Read-out record for Prothrombin (Homo sapiens, UniProt P00734): Ki
Lab book: enter the figure in nM, no units written.

I'm curious: which Ki was measured for N=C(N)c1cccc(C(=O)N[C@@H](C(=O)N2CCN(Cc3ccccc3)CC2)c2ccccc2)c1 tested on Prothrombin (Homo sapiens, UniProt P00734)?
7940

So what Ki did N=C(N)c1cccc(C(=O)N[C@@H](C(=O)N2CCC(C(=O)c3ccc(F)cc3)CC2)c2ccccc2)c1 get with Prothrombin (Homo sapiens, UniProt P00734)?
1180

// map N=C(N)c1cccc(C(=O)N[C@@H](C(=O)NCCc2ccccc2)c2ccccc2)c1 to recorded Ki (system: Prothrombin (Homo sapiens, UniProt P00734))
3100

Request: Ki, test system Prothrombin (Homo sapiens, UniProt P00734), entry N=C(N)c1cccc(C(=O)N[C@@H](C(=O)N2CCC(C(=O)c3ccccc3)CC2)c2ccccc2)c1
1260

Form entry - test system: Prothrombin (Homo sapiens, UniProt P00734); read-out: Ki; compound: N=C(N)c1cccc(C(=O)N[C@@H](C(=O)NCc2ccc(CN)cc2)c2ccccc2)c1
26000

So what Ki did N=C(N)c1cccc(C(=O)N[C@@H](C(=O)N2CCN(c3ccccc3)CC2)c2ccccc2)c1 get with Prothrombin (Homo sapiens, UniProt P00734)?
1740

Item COc1ccc(CNC(=O)[C@H](NC(=O)c2cccc(C(=N)N)c2)c2ccccc2)cc1 with Prothrombin (Homo sapiens, UniProt P00734) - Ki?
2300

Item: N=C(N)c1cccc(C(=O)N[C@@H](C(=O)N2CCN(C(=O)c3ccccc3)CC2)c2ccccc2)c1 Test system: Prothrombin (Homo sapiens, UniProt P00734) Read-out: Ki Value: ?
7940
